These measurements were taken from PubChem BioAssay AID2060625.

# Test system: 186277-243-T-J2-PDC spheroids with HUVEC/MSC, viability
# Protocol text: Anticancer human tumor 186277-243-T-J2-PDC patient-derived colon adenocarcinoma cell line growth inhibition [CLK]
# Experimental parameters: second compound 1 µM; first compound 0.316 µM; stronger effect = lower value
Experimental endpoint: viability, T/C (%)
Just the number in %, nothing appended.

Previously resolved entries follow.
{"Compound": "COc1cccc2c1C(=O)c1c(O)c3c(c(O)c1C2=O)CC(O)(C(=O)CO)CC3OC1CC(N)C(O)C(C)O1 (stereo not drawn) + CNC(=O)c1ccc(Nc2nc(OC3CCCC3)c3c(-c4ccc5nc(C)oc5c4)c[nH]c3n2)c(OC)c1", "viability, T/C [%]": 3.75}
{"Compound": "C#Cc1c(F)ccc2cc(O)cc(-c3ncc4c(N5CC6CCC(C5)N6)nc(OCC56CCCN5CC(F)C6)nc4c3F)c12 (stereo not drawn) + CNC(=O)c1ccc(Nc2nc(OC3CCCC3)c3c(-c4ccc5nc(C)oc5c4)c[nH]c3n2)c(OC)c1", "viability, T/C [%]": 6.68}

Documented viability, T/C of COc1c(OCCCN2CCOCC2)ccc2c3n(c(=NC(=O)c4cnc(N)nc4)nc12)CCN3 + CN1CCN(c2cc(C(=O)Nc3cc4cc(-c5cnn(C)c5)ccc4cn3)ccn2)CC1 : 0.78

* * *

In this section we review reported IC50 values for a set of compounds.
# Test system: 186277-243-T-J2-PDC spheroids with HUVEC/MSC, viability
# Protocol text: Anticancer human tumor 186277-243-T-J2-PDC cell line growth inhibition [CLK];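 also: compound exposure lasted seven days before readout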
# Experimental parameters: curve of first compound; second compound 0.0316 µM
Just the number in µM, nothing appended.

Previously resolved entries follow.
{"Compound": "COc1ccc([C@@H](O)c2cc(-c3ncnc4cc(N5CCOCC5)ccc34)c(F)cc2Cl)nn1 + CNC(=O)c1ccc(Nc2nc(OC3CCCC3)c3c(-c4ccc5nc(C)oc5c4)c[nH]c3n2)c(OC)c1", "Unit descriptor": "µM", "Value measured": 7.66}
{"Compound": "Nc1ccccc1NC(=O)c1ccc(CNC(=O)OCc2cccnc2)cc1 + CN1CCN(c2cc(C(=O)Nc3cc4cc(-c5cnn(C)c5)ccc4cn3)ccn2)CC1", "Unit descriptor": "µM", "Value measured": 3.73}
{"Compound": "NC(=O)C(=Cn1cnc(-c2cc(C(F)(F)F)cc(C(F)(F)F)c2)n1)c1cncnc1 + CN1CCN(c2cc(C(=O)Nc3cc4cc(-c5cnn(C)c5)ccc4cn3)ccn2)CC1", "Unit descriptor": "µM", "Value measured": 0.127}

Entry NC(=O)C(=Cn1cnc(-c2cc(C(F)(F)F)cc(C(F)(F)F)c2)n1)c1cncnc1 + CNC(=O)c1ccc(Nc2nc(OC3CCCC3)c3c(-c4ccc5nc(C)oc5c4)c[nH]c3n2)c(OC)c1 , 186277-243-T-J2-PDC spheroids with HUVEC/MSC, viability data, IC50 value: 0.152

Entry C=C(F)C(=O)N1CCN(c2nc(OCC3CCCN3C)nc3c2CCN(c2cccc4cccc(Cl)c24)C3)CC1CC#N (stereo unspecified) + CN1CCN(c2cc(C(=O)Nc3cc4cc(-c5cnn(C)c5)ccc4cn3)ccn2)CC1 , 186277-243-T-J2-PDC spheroids with HUVEC/MSC, viability data, IC50 value: 6.63

Entry COc1c(OCCCN2CCOCC2)ccc2c3n(c(=NC(=O)c4cnc(N)nc4)nc12)CCN3 + CNC(=O)c1ccc(Nc2nc(OC3CCCC3)c3c(-c4ccc5nc(C)oc5c4)c[nH]c3n2)c(OC)c1 , 186277-243-T-J2-PDC spheroids with HUVEC/MSC, viability data, IC50 value: 0.0299

* * *

# Tested on: 186277-243-T-J2-PDC spheroids with HUVEC/MSC, viability
# Protocol text: Anticancer human tumor 186277-243-T-J2-PDC cell line growth inhibition [CLK];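 also: compound exposure lasted seven days before readout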
# Experimental parameters: curve of first compound; second compound 1 µM
Experimental endpoint: IC50

Previously resolved entries follow.
{"Molecule": "COc1cccc2c1C(=O)c1c(O)c3c(c(O)c1C2=O)CC(O)(C(=O)CO)CC3OC1CC(N)C(O)C(C)O1 (stereo not given) + CNC(=O)c1ccc(Nc2nc(OC3CCCC3)c3c(-c4ccc5nc(C)oc5c4)c[nH]c3n2)c(OC)c1", "IC50": "< 31.6 nM"}
{"Molecule": "Nc1ccccc1NC(=O)c1ccc(CNC(=O)OCc2cccnc2)cc1 + CN1CCN(c2cc(C(=O)Nc3cc4cc(-c5cnn(C)c5)ccc4cn3)ccn2)CC1", "IC50": "< 31.6 nM"}
{"Molecule": "COC1C=CCC(C)C(C)S(=O)(=O)NC(=O)c2ccc3c(c2)N(CC2CCC21)CC1(CCCc2cc(Cl)ccc21)CO3 (stereo not given) + CNC(=O)c1ccc(Nc2nc(OC3CCCC3)c3c(-c4ccc5nc(C)oc5c4)c[nH]c3n2)c(OC)c1", "IC50": "< 31.6 nM"}
{"Molecule": "CC(C)CC(NC(=O)C(Cc1ccccc1)NC(=O)c1cnccn1)B(O)O (stereo not given) + CN1CCN(c2cc(C(=O)Nc3cc4cc(-c5cnn(C)c5)ccc4cn3)ccn2)CC1", "IC50": "< 0.949 nM"}

Turning now to a further record.
Documented IC50 of CC1COCCN1c1cc(C2(S(C)(=N)=O)CC2)nc(-c2ccnc3[nH]ccc23)n1 (stereo not given) + CN1CCN(c2cc(C(=O)Nc3cc4cc(-c5cnn(C)c5)ccc4cn3)ccn2)CC1 : < 31.6 nM

* * *

# Tested on: 186277-243-T-J2-PDC spheroids with HUVEC/MSC, viability
# Protocol text: Anticancer human tumor 186277-243-T-J2-PDC cell line growth inhibition [CLK]; active means viability on the fitted dose curve at most 10% of control; inactive means the rest;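 also: compound exposure lasted seven days before readout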
# Experimental parameters: second compound 3.16 µM; first compound 3.16 µM
Returns: one label drawn from 1.0 = active, 0.0 = inactive

{"Compound": "Nc1ccccc1NC(=O)c1ccc(CNC(=O)OCc2cccnc2)cc1 + CN1CCN(c2cc(C(=O)Nc3cc4cc(-c5cnn(C)c5)ccc4cn3)ccn2)CC1", "Assayed target": "186277-243-T-J2-PDC spheroids with HUVEC/MSC, viability", "Category": 1.0}
{"Compound": "CC1(C)CCC(CN2CCN(c3ccc(C(=O)NS(=O)(=O)c4ccc(NCC5CCOCC5)c([N+](=O)[O-])c4)c(Oc4cnc5[nH]ccc5c4)c3)CC2)=C(c2ccc(Cl)cc2)C1 + CN1CCN(c2cc(C(=O)Nc3cc4cc(-c5cnn(C)c5)ccc4cn3)ccn2)CC1", "Assayed target": "186277-243-T-J2-PDC spheroids with HUVEC/MSC, viability", "Category": 1.0}
{"Compound": "CC(CO)NC(=O)c1cc(-c2ccc(Cl)cc2)nn(-c2cnn(C)c2)c1=O (stereo unspecified) + CNC(=O)c1ccc(Nc2nc(OC3CCCC3)c3c(-c4ccc5nc(C)oc5c4)c[nH]c3n2)c(OC)c1", "Assayed target": "186277-243-T-J2-PDC spheroids with HUVEC/MSC, viability", "Category": 0.0}
{"Compound": "Nc1ccn(C2OC(CO)C(O)C2(F)F)c(=O)n1 (stereo unspecified) + CNC(=O)c1ccc(Nc2nc(OC3CCCC3)c3c(-c4ccc5nc(C)oc5c4)c[nH]c3n2)c(OC)c1", "Assayed target": "186277-243-T-J2-PDC spheroids with HUVEC/MSC, viability", "Category": 1.0}
{"Compound": "CC(Nc1ccc2c(c1)OCCn1cc(N3C(=O)OCC3C(F)F)nc1-2)C(N)=O (stereo unspecified) + CN1CCN(c2cc(C(=O)Nc3cc4cc(-c5cnn(C)c5)ccc4cn3)ccn2)CC1", "Assayed target": "186277-243-T-J2-PDC spheroids with HUVEC/MSC, viability", "Category": 1.0}

Pending compound:
Prompt: Please state the recorded outcome for this compound: CC1COCCN1c1cc(C2(S(C)(=N)=O)CC2)nc(-c2ccnc3[nH]ccc23)n1 (stereo unspecified) + CN1CCN(c2cc(C(=O)Nc3cc4cc(-c5cnn(C)c5)ccc4cn3)ccn2)CC1
Response: 1.0

* * *

# Tested on: 186277-243-T-J2-PDC spheroids with HUVEC/MSC, viability
# Protocol text: Anticancer human tumor 186277-243-T-J2-PDC cell line growth inhibition [CLK];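 also: compound exposure lasted seven days before readout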;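 as to viability, T/C: 100% = DMSO vehicle control wells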
# Experimental parameters: second compound 1 µM; first compound 0.01 µM; stronger effect = lower value
Experimental endpoint: viability, T/C (%)
Just the number in %, nothing appended.

Previously resolved entries follow.
{"Compound": "CCc1c2c(nc3ccc(O)cc13)-c1cc3c(c(=O)n1C2)COC(=O)[C@]3(O)CC + CN1CCN(c2cc(C(=O)Nc3cc4cc(-c5cnn(C)c5)ccc4cn3)ccn2)CC1", "Assayed target": "186277-243-T-J2-PDC spheroids with HUVEC/MSC, viability", "viability, T/C / %": 3.1}
{"Compound": "CCN1CCN(Cc2ccc(Nc3ncc(F)c(-c4cc(F)c5nc(C)n(C(C)C)c5c4)n3)nc2)CC1 + CN1CCN(c2cc(C(=O)Nc3cc4cc(-c5cnn(C)c5)ccc4cn3)ccn2)CC1", "Assayed target": "186277-243-T-J2-PDC spheroids with HUVEC/MSC, viability", "viability, T/C / %": 0.98}
{"Compound": "CCN1CCN(Cc2ccc(Nc3ncc(F)c(-c4cc(F)c5nc(C)n(C(C)C)c5c4)n3)nc2)CC1 + CNC(=O)c1ccc(Nc2nc(OC3CCCC3)c3c(-c4ccc5nc(C)oc5c4)c[nH]c3n2)c(OC)c1", "Assayed target": "186277-243-T-J2-PDC spheroids with HUVEC/MSC, viability", "viability, T/C / %": 47.8}
{"Compound": "COc1c(OCCCN2CCOCC2)ccc2c3n(c(=NC(=O)c4cnc(N)nc4)nc12)CCN3 + CN1CCN(c2cc(C(=O)Nc3cc4cc(-c5cnn(C)c5)ccc4cn3)ccn2)CC1", "Assayed target": "186277-243-T-J2-PDC spheroids with HUVEC/MSC, viability", "viability, T/C / %": 0.39}

Documented viability, T/C of CCc1c2c(nc3ccc(O)cc13)-c1cc3c(c(=O)n1C2)COC(=O)[C@]3(O)CC + CNC(=O)c1ccc(Nc2nc(OC3CCCC3)c3c(-c4ccc5nc(C)oc5c4)c[nH]c3n2)c(OC)c1 : 31.8
